# Test system: 966289-007-R4-J1-PDC complex spheroid viability;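 also: spheroids exposed to agents for one week before readout; percent viability relative to DMSO vehicle control wells as 100%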
# PROTOCOL_DETAILS: Anticancer human tumor 966289-007-R4-J1-PDC patient-derived pancreatic adenocarcinoma cell line growth inhibition [RAS]
# MEASUREMENT_CONTEXT: second compound 0.1 µM; first compound 0.01 µM; stronger effect = lower value
Give viability, T/C for every item shown.
One number for each entry, in %.

Take each entry in turn and give its viability, T/C.
1. C=CC(=O)Nc1cc(Nc2nccc(-c3cn(C)c4ccccc34)n2)c(OC)cc1N(C)CCN(C)C + C#Cc1c(F)ccc2cc(O)cc(-c3ncc4c(N5CC6CCC(C5)N6)nc(OCC56CCCN5CC(F)C6)nc4c3F)c12
2. C=CC(=O)Nc1cc(Nc2nccc(-c3cn(C)c4ccccc34)n2)c(OC)cc1N(C)CCN(C)C + C=CC(=O)N1CCN(c2nc(OCC3CCCN3C)nc3c(F)c(-c4nc(N)cc(C)c4C(F)(F)F)c(Cl)cc23)C(C)C1

103
103

Take each entry in turn and give its viability, T/C.
1. CC(C)n1nc(-c2ccc3oc(N)nc3c2)c2c(N)ncnc21 + C#Cc1c(F)ccc2cc(O)cc(-c3ncc4c(N5CC6CCC(C5)N6)nc(OCC56CCCN5CC(F)C6)nc4c3F)c12
2. O=C(c1ccc(F)c(F)c1Nc1ccc(I)cc1F)N1CC(O)([C@@H]2CCCCN2)C1 + C#Cc1c(F)ccc2cc(O)cc(-c3ncc4c(N5CC6CCC(C5)N6)nc(OCC56CCCN5CC(F)C6)nc4c3F)c12
3. CCN1CCN(Cc2ccc(Nc3ncc(F)c(-c4cc(F)c5nc(C)n(C(C)C)c5c4)n3)nc2)CC1 + C=CC(=O)N1CCN(c2nc(OCC3CCCN3C)nc3c(F)c(-c4nc(N)cc(C)c4C(F)(F)F)c(Cl)cc23)C(C)C1

[110, 73.7, 121]
